These entries and their values trace back to the supplement of paper PMC10307832.

System: LOU-NH91
assay-details: relative viability (nuclei count vs DMSO), 5 days (fraction); higher = more cells survive
experimental-parameters: first compound 0.02 µM
As shown below, each of these compounds has a reported relative viability value.
// return just the number, without any unit appended

| compound | relative viability |
| --- | --- |
| CC(=O)O[C@@]12CO[C@@H]1C[C@H](O)[C@@]1(C)C(=O)[C@H](O)C3=C(C)[C@@H](OC(=O)[C@H](O)[C@@H](NC(=O)OC(C)(C)C)c4ccccc4)C[C@@](O)([C@@H](OC(=O)c4ccccc4)[C@H]21)C3(C)C [Docetaxel] + COc1cc2c(Oc3ccc(NC(=O)C4(C(=O)Nc5ccc(F)cc5)CC4)cc3F)ccnc2cc1OCCCN1CCOCC1 [Foretinib] (partner 0.25 µM) | 0.284 |

Log: LOU-NH91, compound CC(=O)O[C@@]12CO[C@@H]1C[C@H](O)[C@@]1(C)C(=O)[C@H](O)C3=C(C)[C@@H](OC(=O)[C@H](O)[C@@H](NC(=O)OC(C)(C)C)c4ccccc4)C[C@@](O)([C@@H](OC(=O)c4ccccc4)[C@H]21)C3(C)C [Docetaxel] + N=C(N)NC(=N)NCCc1ccccc1 [Phenformin] (partner 250 µM) , relative viability = 0.269

Given the compound CC(=O)O[C@@]12CO[C@@H]1C[C@H](O)[C@@]1(C)C(=O)[C@H](O)C3=C(C)[C@@H](OC(=O)[C@H](O)[C@@H](NC(=O)OC(C)(C)C)c4ccccc4)C[C@@](O)([C@@H](OC(=O)c4ccccc4)[C@H]21)C3(C)C [Docetaxel] + CC(=O)c1c(C)c2cnc(Nc3ccc(N4CCNCC4)cn3)nc2n(C2CCCC2)c1=O [Palbociclib] (partner 0.5 µM) and test system LOU-NH91, the measured relative viability is 0.324

----------
Tested on: HCC-78
assay-details: relative viability (nuclei count vs DMSO), 5 days (fraction); higher = more cells survive
experimental-parameters: first compound 0.05 µM
A collection of molecules and their measured relative viability
Give the value as a plain number.

Take a look at these entries with their results.
| molecule | quantity | measurement |
| --- | --- | --- |
| Nc1ccn([C@@H]2O[C@H](CO)[C@@H](O)[C@@H]2O)c(=O)n1 [Cytarabine] + COc1cc2c(Oc3ccc(NC(=O)C4(C(=O)Nc5ccc(F)cc5)CC4)cc3F)ccnc2cc1OCCCN1CCOCC1 [Foretinib] (partner 0.25 µM) | relative viability | 0.524 |
| COc1cc2nccc(Oc3ccc(NC(=O)Nc4cc(C)on4)c(Cl)c3)c2cc1OC [Tivozanib] + O=C(CCCCCCC(=O)Nc1ccccc1)NO [Vorinostat] (partner 1 µM) | relative viability | 0.412 |
| Nc1ccn([C@@H]2O[C@H](CO)[C@@H](O)[C@@H]2O)c(=O)n1 [Cytarabine] + Nc1ncn([C@H]2C[C@H](O)[C@@H](CO)O2)c(=O)n1 [Decitabine] (partner 2 µM) | relative viability | 0.587 |
| COc1cc2nccc(Oc3ccc(NC(=O)Nc4cc(C)on4)c(Cl)c3)c2cc1OC [Tivozanib] + CC(=O)c1c(C)c2cnc(Nc3ccc(N4CCNCC4)cn3)nc2n(C2CCCC2)c1=O [Palbociclib] (partner 0.5 µM) | relative viability | 0.474 |

From here, focus on the item given below.
The reported relative viability of the molecule COc1cc2nccc(Oc3ccc(NC(=O)Nc4cc(C)on4)c(Cl)c3)c2cc1OC [Tivozanib] + CS(=O)(=O)N1CCN(Cc2cc3nc(-c4cccc5[nH]ncc45)nc(N4CCOCC4)c3s2)CC1 [Pictilisib] (partner 1 µM) was 0.207
